Origin of the recorded values: the supplement of paper PMC12855868

B1: library; numbered along this chain (parent)
chain: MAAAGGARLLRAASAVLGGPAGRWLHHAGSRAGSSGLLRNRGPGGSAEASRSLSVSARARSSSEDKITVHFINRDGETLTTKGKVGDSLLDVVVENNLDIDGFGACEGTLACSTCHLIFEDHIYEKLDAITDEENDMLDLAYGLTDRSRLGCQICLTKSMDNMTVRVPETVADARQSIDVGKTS

- Variants of: B1
- test.details: scaled log2 fold change in cell abundance, elesclomol vs control (0 = silent mean, 1 = nonsense mean) (scaled log2 ratio); higher = higher viability under elesclomol (loss of FDX1 cuproptosis function);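 note: variant abundance is its share of total variant reads in each endpoint sample, from next-generation sequencing of the integrated ORF PCR-amplified out of genomic DNA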
- test.context: with ABC1 FDX1 KO; elesclomol 5 nM; glucose 10 mM; 14 days
Listed below: scaled log2 fold change values for each entry.
observation.type: scaled log2 fold change

INSERT INTO assay_data (mutation_spec, observation_type, result_number) VALUES
  ('H26C', 'scaled log2 fold change', -0.0138),
  ('E95Q', 'scaled log2 fold change', 0.0772),
  ('A129Y', 'scaled log2 fold change', -0.538),
  ('I67L', 'scaled log2 fold change', 0.113),
  ('T157E', 'scaled log2 fold change', 0.0855),
  ('S50C', 'scaled log2 fold change', 0.19),
  ('N40R', 'scaled log2 fold change', 0.387),
  ('V55N', 'scaled log2 fold change', -0.28),
  ('S148H', 'scaled log2 fold change', 0.322),
  ('A3W', 'scaled log2 fold change', 0.38),
  ('S46M', 'scaled log2 fold change', 0.376),
  ('R39M', 'scaled log2 fold change', 0.188),
  ('E48P', 'scaled log2 fold change', 0.619),
  ('R175S', 'scaled log2 fold change', 0.343),
  ('S46Y', 'scaled log2 fold change', 0.737),
  ('L9V', 'scaled log2 fold change', 0.286),
  ('I67W', 'scaled log2 fold change', 0.658),
  ('E64H', 'scaled log2 fold change', -0.531),
  ('G33E', 'scaled log2 fold change', 0.197),
  ('G36W', 'scaled log2 fold change', -0.615),
  ('Y124P', 'scaled log2 fold change', 0.511),
  ('R149D', 'scaled log2 fold change', 1.08);
